molecular target: TNFα / TNFα receptor (TNFα R1/Fc) (Homo sapiens, UniProt P01375); construct: purchased R&D Systems; assay: Inhibition of binding of TNFα to the TNFα receptor (plate ELISA competition); conditions: Table 2; read-out: Activity (IC50, inhibition of TNFα binding to TNFα R1/Fc)
Sequence (P01375 77-233 limits assumed, species assumed): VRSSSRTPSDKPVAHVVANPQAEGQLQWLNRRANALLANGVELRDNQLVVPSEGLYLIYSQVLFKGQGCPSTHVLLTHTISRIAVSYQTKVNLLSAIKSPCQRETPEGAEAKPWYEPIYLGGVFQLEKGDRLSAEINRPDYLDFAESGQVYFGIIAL
pIC50: −log10 of the molar value. Numbered stars: 1 amine (or outer) side, 2 acyl side, 3 side chain; on linkers, the order of the positions; unused ones are H or OH. Bridge positions count the residues as written; N and C are the ends. Square brackets hold non-standard residues; d marks the D form. Peptide text beside a SMILES is read from it. Bip(2'-Me) = Cc1ccccc1-c1ccc(C[C@H](N)C(=O)O)cc1; Phe(4-NH2) = Nc1ccc(C[C@H](N)C(=O)O)cc1; d2Thi = N[C@H](Cc1cccs1)C(=O)O; Suc = O=C(CCC(=O)[*:2])[*:1]
VALUE TYPE: pIC50

molecule="O=C1COc2ccc(cc2)C[C@@H](C(=O)O)NC(=O)[C@@H](CCc2ccccc2)NC(=O)[C@H](Cc2ccc(-c3ccccc3)cc2)NC(=O)[C@@H](Cc2ccncc2)N1 [Compound 523]" value_type=pIC50 recorded_measurement="< 4.00"

Here is another molecule to look at.
### Prompt For the record Cc1ccccc1-c1ccc(C[C@@H]2NC(=O)[C@@H](Cc3cccs3)NC(=O)CCC(=O)Nc3ccc(cc3)C[C@@H](C(=O)O)NC(=O)[C@@H](Cc3ccccc3)NC2=O)cc1 [Compound 95] ([d2Thi][Bip(2'-Me)][dF][Phe(4-NH2)]-OH; linker N-4 via Suc) , what value of pIC50 is listed for TNFα / TNFα receptor (TNFα R1/Fc) (Homo sapiens, UniProt P01375)?
### Response 4.00 to 4.52

----------
biological target: TNFα / TNFα receptor (TNFα R1/Fc) (Homo sapiens, UniProt P01375); construct: purchased R&D Systems; assay: Inhibition of binding of TNFα to the TNFα receptor (plate ELISA competition); settings: Table 2; read-out: Activity (IC50, inhibition of TNFα binding to TNFα R1/Fc)
Numbered stars: 1 amine (or outer) side, 2 acyl side, 3 side chain; on linkers, the order of the positions; unused ones are H or OH. Bridge positions count the residues as written; N and C are the ends. Square brackets hold non-standard residues; d marks the D form. Peptide text beside a SMILES is read from it. Phe(4-CF3) = N[C@@H](Cc1ccc(C(F)(F)F)cc1)C(=O)O; Phe(4-NH2) = Nc1ccc(C[C@H](N)C(=O)O)cc1; dPhe(2-Cl) = N[C@H](Cc1ccccc1Cl)C(=O)O; d(hPhe) = N[C@H](CCc1ccccc1)C(=O)O; Suc = O=C(CCC(=O)[*:2])[*:1]
Listed here: items and their measured IC50.

compound="O=C1CCC(=O)N[C@H](CCc2ccccc2)C(=O)N[C@@H](Cc2ccc(C(F)(F)F)cc2)C(=O)N[C@H](Cc2ccccc2Cl)C(=O)N[C@H](C(=O)O)Cc2ccc(cc2)N1 [Compound 226] ([d(hPhe)][Phe(4-CF3)][dPhe(2-Cl)][Phe(4-NH2)]-OH; linker N-4 via Suc)" value_type=IC50 recorded_measurement="10 to 30 µM"

### Prompt What does the record list as IC50 for O=C1COc2ccc(cc2)C[C@@H](C(=O)O)NC(=O)[C@@H](CCc2ccccc2)NC(=O)[C@H](Cc2ccc(-c3ccccc3)cc2)NC(=O)[C@@H](Cc2ccc(F)c(F)c2)N1 ?
### Response 10 to 30 µM

### Prompt Which IC50 value is on record for O=C1COc2ccc(cc2)C[C@@H](C(=O)NCC2(C(=O)O)CC2)NC(=O)[C@@H](CCc2ccccc2)NC(=O)[C@H](Cc2ccc(-c3ccccc3)cc2)NC(=O)[C@@H](Cc2cccs2)N1 ?
### Response < 10 µM

### Prompt Requested read-out: IC50. Entry: O=C1COc2ccc(cc2)C[C@@H](C(=O)O)NC(=O)[C@H](Cc2ccc(-c3ccncc3)cc2)NC(=O)[C@@H](Cc2ccc(-c3ccccc3)cc2)NC(=O)[C@H](Cc2ccncc2)N1
### Response < 10 µM

### Prompt Which IC50 is listed for O=C(O)[C@@H]1Cc2ccc(cc2)NC(=O)[C@H](O)[C@@H](O)C(=O)N[C@H](Cc2cccs2)C(=O)N[C@@H](Cc2ccc(-c3ccccc3)cc2)C(=O)N[C@H](Cc2cccs2)C(=O)N1 ?
### Response < 10 µM

----------
Quick reference for pIC50 among some compounds
Biological target: TNFα / TNFα receptor (TNFα R1/Fc) (Homo sapiens)
Construct: purchased R&D Systems
Assay: Inhibition of binding of TNFα to the TNFα receptor (plate ELISA competition)
Conditions: Table 2; read-out: Activity (IC50, inhibition of TNFα binding to TNFα R1/Fc)
Experimental: The compounds listed in Table 2 below were assayed for ability to inhibit binding of TNFα to the TNFα receptor (TNFα R1/Fc). The assays were performed as described in the following procedure: TNFα (R&D Systems) was coated on high binding plate wells (Corning 96-well) at a single uniform concentration of 15 nM, 100 μL/well in PBS. […] The TMB reaction was stopped with the addition of 0.5N HCl and then the plate was read for absorbance at 450 nm.
pIC50: −log10 of the molar value. Numbered stars: 1 amine (or outer) side, 2 acyl side, 3 side chain; on linkers, the order of the positions; unused ones are H or OH. Bridge positions count the residues as written; N and C are the ends. Square brackets hold non-standard residues; d marks the D form. Peptide text beside a SMILES is read from it. Tartaroyl(2R,3R-(OAc)2) = CC(=O)O[C@@H](C(=O)[*:1])[C@@H](OC(C)=O)C(=O)[*:2]; dPhe(4-Br) = N[C@H](Cc1ccc(Br)cc1)C(=O)O; Phe(4-NH2) = Nc1ccc(C[C@H](N)C(=O)O)cc1; 2Thi = N[C@@H](Cc1cccs1)C(=O)O

compound="CC(=O)O[C@H]1C(=O)Nc2ccc(cc2)C[C@@H](C(=O)N[C@@H](Cc2ccccc2)C(=O)O)NC(=O)[C@H](Cc2ccccc2)NC(=O)[C@@H](Cc2ccc(Br)cc2)NC(=O)[C@H](Cc2cccs2)NC(=O)[C@@H]1OC(C)=O [Compound 418] ([2Thi][dPhe(4-Br)]F[Phe(4-NH2)]F-OH; linker N-4 via Tartaroyl(2R,3R-(OAc)2))" target_or_test_system="TNFα / TNFα receptor (TNFα R1/Fc) (Homo sapiens)" recorded_measurement="< 4.00"

Consider now this further compound.
### Prompt Request: pIC50, test system TNFα / TNFα receptor (TNFα R1/Fc) (Homo sapiens), entry O=C1COc2ccc(cc2)C[C@@H](C(=O)N[C@H](Cc2ccccc2)C(=O)O)NC(=O)[C@H](Cc2ccccc2)NC(=O)[C@H](Cc2ccc(-c3ccccc3)cc2)NC(=O)[C@H](Cc2cccs2)N1 [Compound 228]
### Response > 5.00

----------
molecular target: TNFα / TNFα receptor (TNFα R1/Fc) (Homo sapiens); construct: purchased R&D Systems; experiment: Inhibition of binding of TNFα to the TNFα receptor (plate ELISA competition); details: Table 2; read-out: Activity (IC50, inhibition of TNFα binding to TNFα R1/Fc)
pIC50: −log10 of the molar value. Numbered stars: 1 amine (or outer) side, 2 acyl side, 3 side chain; on linkers, the order of the positions; unused ones are H or OH. Bridge positions count the residues as written; N and C are the ends. Square brackets hold non-standard residues; d marks the D form. Peptide text beside a SMILES is read from it. Tartaroyl(2R,3R-(OAc)2) = CC(=O)O[C@@H](C(=O)[*:1])[C@@H](OC(C)=O)C(=O)[*:2]; Phe(2,4-Cl2) = N[C@@H](Cc1ccc(Cl)cc1Cl)C(=O)O; dPhe(4-NH2) = Nc1ccc(C[C@@H](N)C(=O)O)cc1; Phe(4-NH2) = Nc1ccc(C[C@H](N)C(=O)O)cc1; mTyr = N[C@@H](Cc1cccc(O)c1)C(=O)O; d2Thi = N[C@H](Cc1cccs1)C(=O)O; Suc = O=C(CCC(=O)[*:2])[*:1]
Here, each record is paired with measured pIC50 data.

compound=O=C(O)CC[C@@H]1NC(=O)[C@H](Cc2ccc(-c3ccccc3)cc2)NC(=O)[C@H](Cc2cccs2)NC(=O)COc2ccc(cc2)C[C@@H](C(=O)O)NC1=O recorded_measurement="< 4.00"
compound=O=C(O)[C@@H]1Cc2ccc(cc2)NC(=O)[C@H](O)[C@@H](O)C(=O)N[C@H](Cc2cccs2)C(=O)N[C@@H](Cc2ccc(-c3ccccc3)cc2)C(=O)N[C@H](Cc2ccco2)C(=O)N1 recorded_measurement="4.52 to 5.00"
compound="O=C1CCC(=O)N[C@H](Cc2cccs2)C(=O)N[C@@H](Cc2cccc(O)c2)C(=O)N[C@H](Cc2ccccc2)C(=O)N[C@H](C(=O)O)Cc2ccc(cc2)N1 [Compound 102] ([d2Thi][mTyr][dF][Phe(4-NH2)]-OH; linker N-4 via Suc)" recorded_measurement="< 4.00"

Now, please, on to the next compound.
### Prompt What reported pIC50 corresponds to CC(=O)O[C@H]1C(=O)Nc2ccc(cc2)C[C@H](C(=O)O)NC(=O)[C@@H](Cc2ccccc2)NC(=O)[C@H](Cc2ccc(Cl)cc2Cl)NC(=O)[C@@H](Cc2cccs2)NC(=O)[C@@H]1OC(C)=O [Compound 234] ([d2Thi][Phe(2,4-Cl2)][dF][dPhe(4-NH2)]-OH; linker N-4 via Tartaroyl(2R,3R-(OAc)2)) on TNFα / TNFα receptor (TNFα R1/Fc) (Homo sapiens)?
### Response < 4.00
